The origin of these recorded values is patent US6211244A.

- measuredOn: human calcium receptor (Homo sapiens, UniProt P41180, R990G)
- Construct: expressed in transfected cells; host or cells: HEK 293
- Sequence (P41180 20-1078 R990G): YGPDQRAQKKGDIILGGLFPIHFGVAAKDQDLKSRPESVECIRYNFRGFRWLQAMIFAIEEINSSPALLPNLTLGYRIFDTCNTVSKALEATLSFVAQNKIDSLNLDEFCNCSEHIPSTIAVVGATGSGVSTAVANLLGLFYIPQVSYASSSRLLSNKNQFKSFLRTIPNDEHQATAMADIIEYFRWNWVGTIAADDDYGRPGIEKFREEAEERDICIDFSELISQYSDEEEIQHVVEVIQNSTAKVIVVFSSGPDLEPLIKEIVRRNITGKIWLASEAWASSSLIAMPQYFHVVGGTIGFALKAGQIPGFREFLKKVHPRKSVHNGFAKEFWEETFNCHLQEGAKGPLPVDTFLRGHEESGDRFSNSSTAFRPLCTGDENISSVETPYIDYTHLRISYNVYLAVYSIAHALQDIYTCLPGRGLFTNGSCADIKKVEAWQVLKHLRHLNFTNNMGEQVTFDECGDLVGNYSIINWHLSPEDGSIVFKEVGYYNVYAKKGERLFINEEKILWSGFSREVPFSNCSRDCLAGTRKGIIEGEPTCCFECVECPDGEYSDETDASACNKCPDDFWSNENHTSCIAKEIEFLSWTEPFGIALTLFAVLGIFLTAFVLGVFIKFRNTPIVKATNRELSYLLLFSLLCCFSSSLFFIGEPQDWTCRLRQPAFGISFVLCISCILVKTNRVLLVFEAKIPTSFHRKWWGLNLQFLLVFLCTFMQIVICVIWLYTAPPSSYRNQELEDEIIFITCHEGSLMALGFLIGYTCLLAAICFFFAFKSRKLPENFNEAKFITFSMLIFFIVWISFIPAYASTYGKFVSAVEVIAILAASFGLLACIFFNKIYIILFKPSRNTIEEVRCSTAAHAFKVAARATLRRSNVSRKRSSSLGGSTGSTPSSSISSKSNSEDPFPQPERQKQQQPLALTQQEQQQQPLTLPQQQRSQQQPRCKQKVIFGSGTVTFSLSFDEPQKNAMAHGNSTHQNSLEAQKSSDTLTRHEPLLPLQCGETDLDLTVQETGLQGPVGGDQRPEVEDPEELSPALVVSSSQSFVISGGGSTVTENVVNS
- methodSummary: increases in [Ca^2+ ]i in HEK-293 cells expressing the human calcium receptor (fura-2 loaded HEK 293/pHuPCaR4.0 cells), % activity
- Type: cell-based
- cond: 3300 ng/mL
measuredMetric: % activity

CC(NC(C)c1cccc2ccccc12)c1ccc(Cl)c(Cl)c1 (stereo not shown) [Compound 17K] = 98%
CC(C)Cc1ccc(C(C)CNC(C)c2cccc3ccccc23)cc1 (mixture of isomers) [Compound 14A] = 98%
CCCOc1cccc([C@@H](C)NCCCc2ccccc2Cl)c1 [Compound 21S] = 132%
COc1ccc(C(C)NC(C)c2cccc3ccccc23)cc1 (stereo not shown) [Compound 16J] = 92%
CC(NC(C)c1cccc2ccccc12)c1ccccc1 (stereo not shown) [Compound 14P] = 112%

Would you mind giving % activity for every molecule in the list below?
1. COc1ccc(CNC(C)c2cccc(F)c2)cc1C (stereo not shown) [Compound 23K]
2. COC(=O)c1cccc(C(C)NCc2ccc(OC)c(C)c2)c1 (stereo not shown) [Compound 24U]
3. C[C@@H](NCc1ccc(I)cc1)c1cccc2ccccc12 [Compound 17E]
4. COc1ccc(CNC(C)c2ccc(F)c(F)c2)cc1C (stereo not shown) [Compound 24I]
5. COc1cccc([C@@H](C)NCC=Cc2ccc(C)cc2C)c1 [Compound 12F]

1. 106%
2. 106%
3. 116%
4. 109%
5. 118%
